- Tested on: HepG2-TUBA1B-RELA
- measurement description: lowest phenotypically active concentration; higher = less potent
- condition description: treatment time: 24 h
metric: lowest phenotypically active concentration

CCC(=O)N1CCN(c2ccc(-n3c(=O)ccc4cnc5ccc(-c6cnc7ccccc7c6)cc5c43)cc2C(F)(F)F)CC1 | ≤ 0.3 µM
CO[C@H]1C[C@@H]2CC[C@@H](C)[C@@](O)(O2)C(=O)C(=O)N2CCCC[C@H]2C(=O)O[C@H]([C@H](C)C[C@@H]2CC[C@@H](OC(=O)C(C)(CO)CO)[C@H](OC)C2)CC(=O)[C@H](C)C=C(C)[C@@H](O)[C@@H](OC)C(=O)[C@H](C)C[C@H](C)C=CC=CC=C1C | 1 µM
CCCNCC(O)COc1ccccc1C(=O)CCc1ccccc1 (stereo unspecified) | 9 µM
COc1cc([C@@H]2c3cc4c(cc3[C@@H](O[C@@H]3O[C@@H]5CO[C@@H](C)O[C@H]5[C@H](O)[C@H]3O)[C@H]3COC(=O)[C@H]23)OCO4)cc(OC)c1O [etoposide] | 1 µM
O=C(O)[C@H]1CCCC[C@H]1C(=O)N1CCc2ccccc2[C@H]1CN1C(=O)c2ccccc2C1=O | 9 µM

*Q* So what does the record say about lowest phenotypically active concentration for COc1ccc(S(=O)(=O)N(C(C)=O)c2ccccc2/C=C/c2cc[n+]([O-])cc2)cc1 ?
*A* 3 µM

---

- Tested on: HepG2-CANX-COX4
- measurement description: phenotypically active (imaging signature differs from DMSO and reproducible) at any of 0.3-9 uM (binary (1 = active, 0 = inactive)); higher = active
- condition description: treatment time: 24 h
Counter-ions that a name gives are not always drawn.
Lab note: assign the record to one of label 1 (active), label 0 (inactive)

CN(C)CC(=O)N1CCC[C@@H](n2nc(-c3ccc(Oc4ccccc4)cc3)c3c(N)ncnc32)C1 | label 1
Nc1nc(N)nc(-c2cc(Cl)ccc2Cl)n1 [Irsogladine maleate] | label 0
CC(=O)N1CCN(c2ccc(OC[C@H]3CO[C@](Cn4ccnc4)(c4ccc(Cl)cc4Cl)O3)cc2)CC1 | label 0

*Q* Give the logged outcome of this assay for the following compound: CNNCc1ccc(C(=O)NC(C)C)cc1
*A* label 0

*Q* Tell me the assay call for O=NN(CCCl)C(=O)NCCCl please.
*A* label 0

---

- Test system: WPMY1-ACTB-RAB5A
- measurement description: phenotypically active (imaging signature differs from DMSO and reproducible) at any of 0.3-9 uM (binary (1 = active, 0 = inactive)); higher = active
- condition description: treatment time: 24 h
Counter-ions that a name gives are not always drawn.
Overview of recorded phenotypically active for various compounds

CNC(=O)c1cc(Oc2ccc(NC(=O)Nc3ccc(Cl)c(C(F)(F)F)c3)cc2)ccn1 | 1 (active)
Cn1cnc2c(F)c(Nc3ccc(Br)cc3Cl)c(C(=O)NOCCO)cc21 | 1 (active)
CN1C(=O)OC(C)(C)C1=O | 0 (inactive)
Oc1cccc(Nc2ccnc3cc(-c4cccc(CN5CCOCC5)c4)sc23)c1 [LCB 03-0110 dihydrochloride] | 1 (active)
CC(C)C(=O)SCCCCCCC(=O)Nc1nc(-c2ccccc2)cs1 | 1 (active)
CCOC(=O)C1=C(C)NC(=S)N[C@H]1c1cccc(O)c1 | 0 (inactive)
CC(=O)[C@@]1(O)CC[C@H]2[C@@H]3C[C@H](C)C4=CC(=O)C=C[C@]4(C)[C@@]3(F)[C@@H](O)C[C@@]21C | 0 (inactive)
COc1cc(N2CCOCC2)ccc1Nc1ncc(Cl)c(Nc2ccccc2NS(C)(=O)=O)n1 | 1 (active)
COc1cc(-c2cn(C)c(=O)c3cnccc23)c(OC)cc1CN(C)C | 0 (inactive)
NC(=O)c1cccc(N)c1 [3-Aminobenzamide] | 0 (inactive)

*Q* Record N=C1NC(=O)/C(=C\c2ccc(O)cc2)S1 : what is its phenotypically active with WPMY1-ACTB-RAB5A?
*A* 1 (active)

*Q* Lab request: please report phenotypically active under test system WPMY1-ACTB-RAB5A for CC(C)c1ccc(NC(=O)Cn2cnc3c2c(=O)n(C)c(=O)n3C)cc1
*A* 0 (inactive)

*Q* Recorded phenotypically active for Fc1ccc([C@@H]2CCNC[C@H]2COc2ccc3c(c2)OCO3)cc1 with WPMY1-ACTB-RAB5A, please?
*A* 1 (active)

*Q* Checklist item: phenotypically active tested on WPMY1-ACTB-RAB5A, entry Cc1cc(C(C)Nc2ccccc2)c2nc(N3CCOCC3)cc(=O)n2c1 (stereo not given) , value?
*A* 0 (inactive)

*Q* Kindly state the measured phenotypically active obtained for CC(=O)N1CCN(C)CC1 [1-Acetyl-4-methylpiperazine hydrochloride] with WPMY1-ACTB-RAB5A.
*A* 0 (inactive)

*Q* Identify the measured phenotypically active of COc1ccc(N2C(=O)CSC2c2cccc(Br)c2)c(OC)c1 (stereo not given) for WPMY1-ACTB-RAB5A.
*A* 1 (active)

*Q* Could you share what phenotypically active was measured for COC(=O)C1=CO[C@@H](O[C@@H]2O[C@H](CO)[C@@H](O)[C@H](O)[C@H]2O)[C@H]2[C@@H]1C(=O)C[C@@H]2C , tested on WPMY1-ACTB-RAB5A?
*A* 0 (inactive)

*Q* Please tell me: phenotypically active of N=C(N)NC(=O)Cc1c(Cl)cccc1Cl , system WPMY1-ACTB-RAB5A?
*A* 0 (inactive)

*Q* Short answer please: phenotypically active, WPMY1-ACTB-RAB5A, entry CC(=O)OCC[N+](C)(C)C
*A* 0 (inactive)

*Q* Find phenotypically active (WPMY1-ACTB-RAB5A) for the entry CC(CN1c2ccccc2Sc2ccccc21)N(C)C (stereo not given)
*A* 1 (active)

---

- Test system: A549-TP53BP1-CLTA
- measurement description: phenotypically active (imaging signature differs from DMSO and reproducible) at any of 0.3-9 uM (binary (1 = active, 0 = inactive)); higher = active
- condition description: treatment time: 24 h
Where a name gives a salt, the structure may show the parent alone.
Respond with a class label; see active, inactive

Reference set, count: 8
Cc1c(CN2CCN(C(=O)[C@H](C)O)CC2)sc2c(N3CCOCC3)nc(-c3cnc(N)nc3)nc12 | active
COc1c(Cl)cc2c([nH]c3cnccc32)c1NC(=O)c1cccnc1C [ML 120B dihydrochloride] | inactive
Nc1ccn([C@@H]2O[C@H](CO)[C@@H](O)C2(F)F)c(=O)n1 [gemcitabine] | active
COCCCOc1ccnc(CS(=O)c2nc3ccccc3[nH]2)c1C (centres undefined) [rabeprazole] | inactive
NC(=O)c1cccc(-c2cc(Nc3ccc(OC(F)(F)F)cc3)ncn2)c1 | active
CC[C@@H]1C(=O)N(C)c2cnc(Nc3ccc(C(=O)NC4CCN(C)CC4)cc3OC)nc2N1C1CCCC1 | active
CCO[C@@H](Cc1ccc(OCCc2ccc(OS(C)(=O)=O)cc2)cc1)C(=O)O [Tesaglitazar] | inactive
S=c1[nH]cnc2nc[nH]c12 [mercaptopurine] | inactive

// next entry
*Q* Please let me know the test result on file for CN1CC[C@H](c2c(O)cc(O)c3c(=O)cc(-c4ccccc4Cl)oc23)[C@H](O)C1 [Flavopiridol hydrochloride] .
*A* active

---

- System: HepG2-ACTB-RAB5A
- measurement description: phenotypically active (imaging signature differs from DMSO and reproducible) at any of 0.3-9 uM (binary (1 = active, 0 = inactive)); higher = active
- condition description: treatment time: 24 h
Reply using exactly one outcome from T (active), F (inactive)

# example entries with known answers
O=C(CCCN1CCC(O)(c2ccc(Cl)cc2)CC1)c1ccc(F)cc1 | T
O=C(O)C[C@H](O)C[C@H](O)/C=C/c1c(C2CC2)nc2ccccc2c1-c1ccc(F)cc1 | T
Cc1c(-c2cnccn2)ssc1=S | F

*Q* Test call, this molecule: CNNCc1ccc(C(=O)NC(C)C)cc1
*A* F

*Q* Give the logged outcome of this assay for the following molecule: COc1ccc([C@@H]2Sc3ccccc3N(CCN(C)C)C(=O)[C@@H]2OC(C)=O)cc1
*A* F

*Q* Dear all, I need the recorded test outcome for CN(C)CCc1c[nH]c2ccc(C[C@H]3COC(=O)N3)cc12 , thank you.
*A* F

*Q* For CC(C)[C@@H](C)/C=C/[C@@H](C)[C@H]1CC[C@H]2C3=CC=C4C[C@@H](O)CC[C@]4(C)[C@H]3CC[C@]12C , which call appears in the assay record?
*A* F

*Q* Give the logged outcome of this assay for the following molecule: Cn1nnc2c(C(N)=O)ncn2c1=O [temozolomide]
*A* F

*Q* What is the recorded call for this molecule in the test? C[C@](N)(Cc1ccc(O)c(O)c1)C(=O)O
*A* F

---

- Test system: WPMY1-TP53BP1-CLTA
- measurement description: phenotypically active (imaging signature differs from DMSO and reproducible) at any of 0.3-9 uM (binary (1 = active, 0 = inactive)); higher = active
- condition description: treatment time: 24 h
Counter-ions that a name gives are not always drawn.
Form entry, call: pick from YES for active, NO for inactive

*Q* Short answer needed: outcome of this test for Cc1cccc(C)c1OCC(C)N (centres undefined) ?
*A* NO

*Q* Could you please tell me the result logged for NCCNS(=O)(=O)c1cccc2cnccc12 [H-9 dihydrochloride] in this assay?
*A* NO

*Q* Kindly provide the recorded test outcome for the following molecule: COc1cc(C(C)=O)ccc1OCCCN1CCC(c2noc3cc(F)ccc23)CC1
*A* NO

*Q* How did this test come out for CC(C)(C)NCC(O)c1ccc(O)c(CO)c1 (centres undefined) ?
*A* NO

*Q* Please share the test call associated with CC1(COc2ccc(CC3SC(=O)NC3=O)cc2)CCCCC1 (centres undefined) .
*A* NO

*Q* Per the records of this test, what outcome belongs to O=c1[nH]cc(F)c(=O)[nH]1 ?
*A* YES

*Q* Test call, this molecule: COc1ccc(C[C@H](C)NC[C@@H](O)c2ccc(O)c(NC=O)c2)cc1
*A* NO

*Q* Identify the outcome logged in this assay for the molecule shown: Cn1cnc2c(NCc3ccccc3)nc(NCCO)nc21
*A* NO

*Q* What classification did CNC(=O)c1c(-c2ccc(F)cc2)oc2cc(N(CCO)S(C)(=O)=O)c(C3CC3)cc12 end up with in this test?
*A* NO

Reference for the values: the supplement of paper PMC7411054
